As shown below, each of these binders has a reported % Aggregation (relative to Q74 alone), filter trap assay value.
biological target: GFP-HTTQ74 reporter construct; assay: cell-based or functional assay
quantity-kind: % Aggregation (relative to Q74 alone), filter trap assay (%)

| binder | units-label | observed |
| --- | --- | --- |
| Construct 7, QBP1-JB1-2XQBP1 (designed binder) MGKPIPNPLLGLDSTGTGSSNWKWWPGIFDEFMGKDYYQTLGLARGASDEEIKRAYRRQALRYHPDKNKEPGAEEKFKEIAEAYDVLSDPRKREIFDRYGEEGLKGSDIGGGGSGGGGSGGGGSGGGGSAAASNWKWWPGIFDGLESNWKWWPGIFD | % | 23 |
| Construct 6, QBP1-JB1-QBP1 (designed binder) MGKPIPNPLLGLDSTGTGSSNWKWWPGIFDEFMGKDYYQTLGLARGASDEEIKRAYRRQALRYHPDKNKEPGAEEKFKEIAEAYDVLSDPRKREIFDRYGEEGLKGSDIGGGGSGGGGSGGGGSGGGGSAAASNWKWWPGIFDGLE | % | 5.62 |
| Construct 2, JB1-QBP1 (designed binder) MGKDYYQTLGLARGASDEEIKRAYRRQALRYHPDKNKEPGAEEKFKEIAEAYDVLSDPRKREIFDRYGEEGLKGSDIGGGGSGGGGSGGGGSGGGGSAAASNWKWWPGIFDGLE | % | 75.9 |
| Construct 3, QBP1-JB1 (designed binder) MGKPIPNPLLGLDSTGTGSSNWKWWPGIFDEFMGKDYYQTLGLARGASDEEIKRAYRRQALRYHPDKNKEPGAEEKFKEIAEAYDVLSDPRKREIFDRYGEEGLKGSDIAAALE | % | 67.5 |
| Construct 4, JB1-2XQBP1 (designed binder) MGKDYYQTLGLARGASDEEIKRAYRRQALRYHPDKNKEPGAEEKFKEIAEAYDVLSDPRKREIFDRYGEEGLKGSDIGGGGSGGGGSGGGGSGGGGSAAASNWKWWPGIFDGLESNWKWWPGIFD | % | 9.86 |
| Construct 5, JB1-3XQBP1 (designed binder) MGKDYYQTLGLARGASDEEIKRAYRRQALRYHPDKNKEPGAEEKFKEIAEAYDVLSDPRKREIFDRYGEEGLKGSGGGGSGGGGSGGGGSGGGGSGSSNWKWWPGIAAASNWKWWPGILESNWKWWPGIFD | % | 41.1 |
| Construct 1, JB1 (other) MGKDYYQTLGLARGASDEEIKRAYRRQALRYHPDKNKEPGAEEKFKEIAEAYDVLSDPRKREIFDRYGEEGLKGSDIAAALESRDYKDDDDK | % | 127 |
